Provide the reported Potency of each item.
Biological target: 4'-phosphopantetheinyl transferase ffp (Bacillus subtilis) (UniProt Q9F4F7)
Experiment: qHTS Assay for Inhibitors of Bacillus subtilis Sfp phosphopantetheinyl transferase (PPTase);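 note: the enzyme is Sfp with the accession as filed and its product quenches rhodamine fluorescence; potency is the fitted concentration of half-maximal effect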
Settings: Biochemical Sfp PPTase activity
Hit rate of the full screen: of about 310,000 compounds, about 11,000 (3.5%) were called active. Inconclusive results (about 4%) are left out. Only a selection was taken, and actives are over-represented in it overall.

Example entries begin here.
1) O=C(CSc1ccc(-c2ccco2)nn1)Nc1cccc(F)c1; 15.8 µM (active)
2) CCc1ccc(-c2nn(-c3ccccc3)cc2CSC(=N)N)cc1; 39.8 µM (active)
3) N#CC1=C(N)C(C#N)(C#N)[C@H](c2ccsc2)[C@H]2COCC=C12; 2.51 µM (active)
4) S=c1[nH]nc2c3c4c(sc3ncn12)CCCC4; 56.2 µM (active)

For every listed record, write down its Potency.
1. Cc1cc(C)c2nc(-c3ccco3)cc(C(=O)O)c2c1
2. CC(=O)N1CCN(c2ccc(NCc3ccc(C(C)C)cc3)cc2)CC1
3. CCN(CC)S(=O)(=O)c1cccc(-c2n[nH]c(=S)n2/N=C/c2ccc(C(=O)OC)cc2)c1
4. O=C(CC1SC(=Nc2ccccc2)N(Cc2ccccn2)C1=O)Nc1cccc(Cl)c1 (stereo unspecified)
5. O=C(CSc1ccc(-c2ccco2)nn1)NCc1ccc2c(c1)OCO2
6. Cc1cc(C)c(NC(=S)N2CCCC2C(=O)O)c(C)c1 (stereo unspecified)
7. NC(=S)c1ccc(C(N)=S)o1

["20 µM (active)", "50.1 µM (active)", "50.1 µM (active)", "44.7 µM (active)", "50.1 µM (active)", "35.5 µM (active)", "56.2 µM (active)"]
